# ASSAY_SUMMARY: inhibitors of TNFa-induced NFkB p65 translocation, primary screen, imaging, HUVEC, MLSMR starter and 10KST1 sets (AID 438);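 note: compound added about 3h40 before a 20 min TNFalpha stimulation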
# APPLIED_CONDITIONS: HUVEC TNFa-induced p65 nuclear translocation; measured here: nuclei count (cytotoxicity indicator), at 2.08 µM
PARAMETER_MEASURED: cell count

COMPOUND: CCC(CC)C(=O)NCCc1cc2ccc(C)cc2[nH]c1=O
ENDPOINT_VALUE: 643
--
COMPOUND: CCCNC(=O)c1ccccc1C(=O)NCCC
ENDPOINT_VALUE: 386
--
COMPOUND: Cc1ccccc1OCCCN1C(=O)C(=O)c2cccc(C)c21
ENDPOINT_VALUE: 833
--
COMPOUND: CCOC(=O)C1CCCN(C/C(O)=C(\C#N)c2nc(-c3ccc(Cl)cc3)cs2)C1 (stereo unspecified)
ENDPOINT_VALUE: 479
--
COMPOUND: O=C(CCn1c(=O)oc2ccccc21)N1CCCCCC1
ENDPOINT_VALUE: 776

For each listed entry, give its cell count.
1. COc1ccccc1N1CC(O)=C(c2nc3ccccc3c(=O)[nH]2)C1=N
2. CCOCCCn1c(=S)[nH]c2cc3c(cc2c1=O)OCO3
3. Cc1ccc2c(CNCc3ccco3)cc(=O)oc2c1
4. CC(=O)Nc1ccc(S(=O)(=O)N2CCC(c3nc4ccccc4[nH]3)CC2)cc1
5. COCCCn1nnnc1SCC(=O)Nc1nc(C)c(C)s1
6. CCOC(=O)C1CCCN(c2c(N3CCN(c4ccccn4)CC3)c(=O)c2=O)C1 (stereo unspecified)

[399, 453, 712, 232, 435, 631]

---

# TESTED_ON: Voltage-gated potassium channel subunit beta-2 (Rattus norvegicus)
# ASSAY_SUMMARY: enhancers of rat Kvbeta2 NADPH turnover – biochemical, NADPH fluorescence, primary screen (AID 623);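 note: fluorescence intensity change per second fitted from 20 to 320 s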
# APPLIED_CONDITIONS: Recombinant KvBeta, NADPH fluorescence decrease slope, 10 min; at 10 µM; stronger effect = lower value
PARAMETER_MEASURED: NADPH fluorescence slope
One number for each entry.

MOLECULE: Cn1c(=O)[nH]c(=O)c2c1nc(Br)n2Cc1ccccc1F
ENDPOINT_VALUE: -3.7e-05

MOLECULE: Cn1c(=O)c(C(=O)Nc2cccnc2)c(O)c2ccccc21
ENDPOINT_VALUE: -4.8e-05

MOLECULE: CCOC(=O)c1c(C)[nH]c(C)c1C(=O)COC(=O)CNC(=O)c1ccc(OCC)cc1
ENDPOINT_VALUE: 2.3e-05

MOLECULE: O=C(Nc1ccc(Br)cc1F)c1sccc1-n1cccc1
ENDPOINT_VALUE: -3.4e-05

MOLECULE: CCN(CC)C1CCCCC1NS(=O)(=O)c1ccc(Cl)cc1 (stereo unspecified)
ENDPOINT_VALUE: -1.7e-06

MOLECULE: CCC(C)NC(=O)c1cc(CC(C)C)on1 (stereo unspecified)
ENDPOINT_VALUE: -1.9e-05

MOLECULE: COc1ccc(OC)c(C(=O)COC(=O)c2cc(C)oc2C)c1
ENDPOINT_VALUE: 2.4e-05

MOLECULE: COc1cccc(C(=O)OCn2nnc3ccccc3c2=O)c1OC
ENDPOINT_VALUE: -2.9e-05

For each listed entry, give its NADPH fluorescence slope.
1. Cc1cc(C(=O)N2CCN(c3ncccn3)CC2)cs1
2. CC(C)N(Cc1nc(-c2ccc(Cl)cc2)no1)C(=O)CN(C)S(=O)(=O)c1ccc(Cl)cc1

1. -2.2e-05
2. -5.4e-05

Reported NADPH fluorescence slope for Voltage-gated potassium channel subunit beta-2 (Rattus norvegicus), given O=C(CCC(=O)N1CCc2ccccc2C1)N1CCN(S(=O)(=O)c2ccccc2)CC1 ?
-1.8e-05

---

# ASSAY_SUMMARY: blockers of RIG-like receptor reporter activation – cell-based, Sendai virus stimulus, luciferase, 10K MLSCN set, TLR/RLR signaling modifier project, primary screen (AID 602276);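 note: firefly luciferase from ISG56 promoter only with Renilla not read in this screen; 0% = Sendai virus plus DMSO and 100% = medium plus DMSO without virus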
# APPLIED_CONDITIONS: HEK293 RL24 IRF3 luciferase reporter, at 10 µM, stronger effect = higher value
Please go through the items and note down their inhibition.
One number for each entry, in %.

COMPOUND: COc1ccc(OC)c(C(=O)COC(=O)c2cc(C)oc2C)c1
OUTPUT_UNIT: %
ENDPOINT_VALUE: 6.43

For each listed entry, give its inhibition.
1. COCCOC(=O)c1c(C)oc2ccc(NS(=O)(=O)c3ccc(F)cc3)cc12
2. COc1ccccc1CNC(=O)CCNC(=O)Cn1ccc2ccccc2c1=O
3. CCCn1cnc2c(cnn2-c2ccc(F)cc2)c1=O
4. COCCNC(=O)Cn1cc2c(n1)CCCCC2
5. COC(=O)c1cnc2c(C(F)(F)F)cccc2c1OC
6. O=C(CSCc1ccccn1)Nc1ccccc1
7. O=C(CN1CCCN(S(=O)(=O)c2ccc(Br)cc2)CC1)Nc1ccc2c(c1)OCO2
8. O=C(NCC1CCCO1)C1CCC(CNS(=O)(=O)c2ccccc2)CC1 (centres undefined)

1: 14.6; 2: 7.16; 3: -35.2; 4: 7.33; 5: 9.38; 6: -30.9; 7: 10.3; 8: 7.1

For each listed entry, give its inhibition.
1. O=c1[nH]c(CN2CCN(Cc3ccccc3)CC2)nc2sc3c(c12)CCC3
2. Cc1cccc(NC(=O)c2ccccc2O)c1C
3. COC(=O)CSC1=NS(=O)(=O)c2ccccc21
4. COc1ccc(-c2nnc(SCC(=O)NC(C)c3ccccc3)o2)cc1 (centres undefined)
5. COc1ccc(Cl)cc1S(=O)(=O)n1cnc2ccccc21
6. CC1CCN(C(=O)CSc2nc3ccccc3[nH]2)CC1
7. CCOC(=O)c1oc2ccccc2c1NC(=O)c1cccc(OC)c1OC
8. Cc1c(C(=O)OC2CCC(C)CC2)[nH]c2c1C(=O)CCC2 (centres undefined)

1. 3.63
2. -45.5
3. 20.5
4. 5.82
5. 19.3
6. -38.7
7. -0.203
8. -106

For each listed entry, give its inhibition.
1. COCCn1c(C)cc(C(=O)CSc2nc3ccccc3c(=O)[nH]2)c1C
2. Cc1c(C)[n+](=O)c2c(n1[O-])CCCCC2
3. Cc1csc(NC(=O)c2ccco2)n1
4. Cc1nc2ncnn2c(N2CCC(C(=O)NC3CCCC3)CC2)c1Cc1ccccc1
5. CNC(=O)C1C2C=CC3(O2)C1C(=O)N(C1CC1)C3C(=O)NCc1ccc(OC)cc1 (centres undefined)
6. CCc1nnc(-n2nc(C)cc2-c2ccccc2)n1N

1. -28
2. -0.779
3. -20.1
4. 5.2
5. 14.1
6. 15.3

Consider the compound Cc1cccc(OCC(=O)N2CCN(C(=O)Cc3ccccc3)CC2)c1 and give its measured inhibition.
5.28

---

# ASSAY_SUMMARY: TLR3 IRF3 reporter activation blockers – cell-based, poly I:C stimulus, luciferase, 10K MLSCN set, primary screen (AID 602277)
# APPLIED_CONDITIONS: HEK293-TLR3 RL24 IRF3 luciferase reporter, at 10 µM
Active and inactive are the calls of the source.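 How the source made its calls: active means inhibition of the reporter signal at or above 50%; inactive means inhibition below 50%.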
Log the outcome using a class from active, inactive

MOLECULE: CC(=O)OC1c2ccccc2C(=O)N1Cc1ccccc1Cl (stereo unspecified)
QUALITATIVE_LABEL: inactive

MOLECULE: COC(=O)c1ccc(CSc2nnc(-c3ccncc3)o2)o1
QUALITATIVE_LABEL: inactive

MOLECULE: Cc1ccc2oc(C(=O)Nc3c(C)n(C)n(-c4ccccc4)c3=O)c(C)c2c1
QUALITATIVE_LABEL: inactive

Lab log entry: CCc1nnc(NC(=O)CN2CCN(c3ccccc3OC)CC2)s1 — outcome as called in the assay?
inactive

What do you get for CCCCOc1ccc(N(CC(=O)NC2CCCC2)C(=O)CCC(=O)Nc2ccccn2)cc1 ?
inactive

---

# ASSAY_SUMMARY: inhibitors of TNFa-induced NFkB p65 translocation, primary screen, imaging, HUVEC, MLSMR starter and 10KST1 sets (AID 438);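 note: compound added about 3h40 before a 20 min TNFalpha stimulation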;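 for inhibition: signal is the nuclear over cytoplasmic p65 intensity ratio per well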
# APPLIED_CONDITIONS: HUVEC TNFa-induced p65 nuclear translocation; at 2 µM, stronger effect = higher value, 0% TNFa-plus-vehicle, 100% no-TNFa wells
PARAMETER_MEASURED: inhibition (%)
One number for each entry, in %.

Examples with answers:
COMPOUND: COCCn1nnnc1CN(Cc1cccnc1)Cc1cc2cc(OC)ccc2[nH]c1=O
ENDPOINT_VALUE: -10.6

COMPOUND: COCCN(C(=O)c1csnn1)C(C(=O)NC1CCCCC1)c1cccs1 (stereo unspecified)
ENDPOINT_VALUE: 5

For each listed entry, give its inhibition.
1. Cc1ccc(C)c(-n2c(CNC(=O)c3ccco3)nnc2SCC(=O)Nc2nnc(C)s2)c1
2. COc1ccc(C(=O)Nc2nncs2)c(OC)c1

[-6.4, 7.5]

For each listed entry, give its inhibition.
1. CCOc1ccc(-c2nnn(CC(=O)N3CCN(c4ccc(F)cc4)CC3)n2)cc1OCC
2. CCOC(=O)N1CCN(C(=O)c2ccc3c(=O)n(Cc4ccc(OC)cc4)c(=S)[nH]c3c2)CC1
3. Cc1[nH]c2ccccc2c1Cc1nnc(SCC(=O)NCc2ccco2)o1
4. CCSc1nc2ccccc2n1CC(N)=O

[-9.5, -17, -7.7, 2.1]

For each listed entry, give its inhibition.
1. CCN1C(=O)c2cccc3c(NC(=O)c4ccc5c(c4)OCCO5)ccc1c23
2. Cc1cccc(N=C2NC(=O)CS2)c1C
3. CCOC(=O)c1ccccc1NC(=O)N1CCn2c(C)ccc2C1CC (stereo unspecified)

0.5
-0.6
2.8
